# peptide exchange yield per record follows
- tgt: HLA-A*24 (human)
- assayInfo: UV-exchange ELISA, exchange yield grade

[
  {
    "binder": "VYFKAGLDVF [… (SEQ ID NO: 177)]",
    "peptide exchange yield": "50 to 75%"
  }
]

The recorded peptide exchange yield for entry QYTPHSHQF [… (SEQ ID NO: 377)] equals 50 to 75%

The reported peptide exchange yield of the binder KYTDYILKI [… (SEQ ID NO: 375)] was 50 to 75%

Note to self: peptide exchange yield recorded for VYLPKIPSW [… (SEQ ID NO: 236)] was 50 to 75%

Hello, the source for this data is patent US20220249633A1, in case you need it.
